# assay.overview: qHTS of pediatric cancer cell lines to identify multiple opportunities for drug repurposing: Primary screen for BT-37 cells (AID 1347094)
# condition.description: BT-37 viability, CellTiter-Glo luminescence, 48 h; series mostly up to 57.3 µM
Results filed as inconclusive are left out. Calls of active or inactive are those of the source. The call rests on the fitted dose curve; in most records, active means well fitted cell-killing curve with a large enough effect; inconclusive means small, poorly fitted or top-dose-only effect; inactive means flat fitted curve, though single readings scatter.
Classes to choose from: active, inactive

The following molecules have reported results that may help.
Prompt: Returns: the outcome recorded for "CN1C[C@H](C(=O)N[C@]2(C)O[C@@]3(O)[C@@H]4CCCN4C(=O)[C@H](Cc4ccccc4)N3C2=O)C[C@@H]2c3cccc4[nH]cc(c34)C[C@H]21" in this assay.
Response: inactive

Prompt: For this molecule, state the assay outcome: "C[n+]1cc2c3c(ccc2c2ccc4cc5c(cc4c21)OCO5)OCO3"
Response: active

Prompt: Each molecule tested received a call. Report the one for "CC(=O)[C@@]1(O)CC[C@H]2[C@@H]3CCC4=CC(=O)CC[C@]4(C)[C@H]3CC[C@@]21C" .
Response: inactive

Prompt: Tell me the recorded outcome of this test for "CO[C@@]1(NC(=O)CSCC#N)C(=O)N2C(C(=O)O)=C(CSc3nnnn3C)CS[C@@H]21" .
Response: inactive

Prompt: Would you mind telling me which call this test gave "CCn1nc(C(=O)O)c(=O)c2cc3c(cc21)OCO3" ?
Response: inactive

Prompt: Please indicate how the test categorized "COC(=O)[C@H]1[C@H]2C[C@@H]3c4[nH]c5cc(OC)ccc5c4CCN3C[C@H]2C[C@@H](OC(=O)c2cc(OC)c(OC)c(OC)c2)[C@@H]1OC" .
Response: inactive

Prompt: For this molecule, state the assay outcome: "NC(N)=NC(=O)Cc1c(Cl)cccc1Cl"
Response: inactive

Prompt: // outcome(item) with item = "Cc1nc2sccn2c(=O)c1CCN1CCC(=C(c2ccc(F)cc2)c2ccc(F)cc2)CC1"
Response: inactive

Please turn your attention to the following entry.
Prompt: Please state the recorded outcome for this molecule: "Cc1ccc(/C(=C\CN2CCCC2)c2ccccn2)cc1"
Response: inactive
